All figures here come from ChEMBL document CHEMBL4513216.

# method description: Toxicity liver stage against HepG2, at 10uM
# Format: cell-based
# Set-up: test concentration 10 uM, cell line HepG2-A16-CD81EGFP
# condition info: human, HepG2-A16-CD81EGFP cells; read-out: INHIBITION
Provide the recorded cytotoxicity at 10 µM for the entries that follow.
Respond with the figure and its unit, in that order.

// returns reported cytotoxicity at 10 µM for input COc1cccc(CNC2CCc3ccc(C)cc32)n1 (stereo not drawn) 4.37%

// returns reported cytotoxicity at 10 µM for input "c1cnn(C2CN(Cc3noc(C4CC4)n3)C2)c1" 0.138%

// returns reported cytotoxicity at 10 µM for input "Cc1nnc2n1CCN(C(=O)c1ccn(-c3cccc(F)c3)n1)C2" -144%

// returns reported cytotoxicity at 10 µM for input "CN(CC(N)=O)CC(=O)N1CC=C(c2ccccc2)CC1" -5.1%

// returns reported cytotoxicity at 10 µM for input "Cc1noc(C)c1CN1CCc2ncnc(-c3cnn(C)c3)c2CC1" -98.4%

// returns reported cytotoxicity at 10 µM for input "Cn1cc(C(=O)N2CCN(c3ncccn3)CC2)ccc1=O" -7.82%

// returns reported cytotoxicity at 10 µM for input CSc1ccccc1CC1CCCS(=O)(=O)C1 (stereo not drawn) 2.26%

// returns reported cytotoxicity at 10 µM for input "CN1CCN(CC2CC2)C(=O)C12CCN(C(=O)CC(F)(F)F)CC2" 8.75%

// returns reported cytotoxicity at 10 µM for input COC(=O)c1ccc(S(=O)(=O)NC2CNC(=O)C2)cc1 (stereo not drawn) -7.27%

// returns reported cytotoxicity at 10 µM for input O=C(c1ccc(N2CCCC2)nn1)N1CCCC(n2cccn2)C1 (stereo not drawn) -5.58%

// returns reported cytotoxicity at 10 µM for input "c1ccc(CN2C[C@@H]3COC[C@]3(COCC3CCOCC3)C2)nc1" -0.326%

// returns reported cytotoxicity at 10 µM for input "Cc1cccc(N2CC[C@@H]3CN(Cc4csc(C)n4)CCO[C@@H]3C2)n1" -4.51%

// returns reported cytotoxicity at 10 µM for input O=C(C1COCCO1)N1CCN(CC(F)(F)F)c2ccccc21 (stereo not drawn) 7.36%

// returns reported cytotoxicity at 10 µM for input "Cc1nc(CN2C(=O)CCC23CCN(Cc2ccccn2)CC3)cs1" -2.71%

// returns reported cytotoxicity at 10 µM for input "CCOC(=O)C1CCN(C(=O)c2cc(F)ccc2-n2cnnn2)CC1" -0.121%

// returns reported cytotoxicity at 10 µM for input "COCCN1CCC(C)(c2cc(O)[nH]n2)CC1" 2.02%

// returns reported cytotoxicity at 10 µM for input "O=C(NCC(F)F)c1ccc(S(=O)(=O)NCCc2cn[nH]c2)cc1" 5.5%

// returns reported cytotoxicity at 10 µM for input Cc1cc(C(=O)N2C[C@@H]3C(CN(C)CCc4ccccn4)[C@@H]3C2)c(C)o1 (stereo partly drawn) -50.1%
